# Tested on: BDF1 mice, B16 melanoma ip, median survival T/C
# protocol notes: NCI In Vivo Anticancer Drug Screen. Data for tumor model B16 Melanoma (intraperitoneal) in B6D2F1 (BDF1) mice
# condition parameters: endpoint: median survival time; dose: 2.5 mg/kg/injection; schedule: Q01DX009 (ip); vehicle: Klucel (hydroxypropylcellulose) (HPC); higher = longer survival
Toxic doses and inconclusive results are not listed.
value type: T/C

-- ask Return T/C (reported value) for this molecule: CC(C)=CCC(O)C1=CC(=O)c2c(O)ccc(O)c2C1=O (configuration not stated)
-- reply 102 % of control

-- ask Return T/C (reported value) for this molecule: C=C1C(=O)C2(C)OC2(C)C1C(=O)O (configuration not stated)
-- reply 105 % of control

-- ask Return T/C (reported value) for this molecule: CCCCCCCC(=O)O[C@H]1[C@H]2[C@@H](CC1(C)C)C(=O)[C@]13O[C@H]1C(=O)[C@]1(CO1)[C@]23C
-- reply 98 % of control

-- ask Return T/C (reported value) for this molecule: C=C1C(C)C2C(Cc3ccccc3)NC(=O)C23OC(=O)/C=C\CC(=O)CCC(C)C/C=C/C3C1O (configuration not stated)
-- reply 94 % of control

-- ask Return T/C (reported value) for this molecule: COC(=O)C1Oc2ccc(Cl)cc2Cc2cc(Cl)ccc2O1
-- reply 91 % of control

-- ask Return T/C (reported value) for this molecule: CCCCCCCCCCCCCCCCCC(=O)[O][Pb]([CH3])([CH3])[CH3]
-- reply 99 % of control

-- ask Return T/C (reported value) for this molecule: CC1(C)CC[C@H](C2=CC(=O)c3c(O)ccc(O)c3C2=O)O1
-- reply 97 % of control
